systemTested: Prostaglandin D2 receptor (Mus musculus)
testSummary: Inhibition of mouse Prostanoid DP receptor
assayEndpoint: IC50 (nM)
Expressed in nM, but write only the number.

Illustrative cases are given below, each with its answer.
>>> resultnumber("CCCCOc1ccc(C(=O)n2c(C)c(CCCC(=O)O)c3cc(OC)ccc32)cc1")
910
>>> resultnumber("CCCCOc1ccc(C(=O)n2c(C)c(CCC(=O)O)c3cc(OC)ccc32)cc1")
1500
>>> resultnumber("CCCCOc1cccc(C(=O)n2c(C)c(CC(=O)O)c3cc(OC)ccc32)c1")
2500

IC50 for Prostaglandin D2 receptor (Mus musculus) with input `CCCCOc1ccc(C(=O)n2c(C)c(C(=O)O)c3cc(OC)ccc32)cc1` equals 4000

IC50 for Prostaglandin D2 receptor (Mus musculus) with input `CCCCOc1ccc(C(=O)n2c(C)c(CC(=O)O)c3cc(C)ccc32)cc1` equals 2900

* * *

systemTested: Prostaglandin E2 receptor EP1 subtype (Mus musculus)
Sequence (P35375 whole entry): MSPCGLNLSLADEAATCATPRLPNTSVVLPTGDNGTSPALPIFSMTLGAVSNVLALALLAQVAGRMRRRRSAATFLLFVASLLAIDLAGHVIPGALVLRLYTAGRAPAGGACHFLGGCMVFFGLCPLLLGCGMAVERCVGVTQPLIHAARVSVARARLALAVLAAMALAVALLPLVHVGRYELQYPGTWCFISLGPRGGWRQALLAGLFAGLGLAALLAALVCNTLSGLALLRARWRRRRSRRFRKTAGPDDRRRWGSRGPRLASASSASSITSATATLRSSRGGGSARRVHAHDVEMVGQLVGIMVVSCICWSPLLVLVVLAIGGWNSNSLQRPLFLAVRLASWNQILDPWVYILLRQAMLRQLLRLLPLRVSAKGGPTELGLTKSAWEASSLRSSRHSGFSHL
testSummary: Binding affinity for mouse Prostanoid EP1 receptor
pKi: −log10 of the molar value.
assayEndpoint: pKi

Illustrative cases are given below, each with its answer.
>>> result("COc1ccc2c(c1)c(CC(=O)O)c(C)n2C(=O)c1ccc(Cl)cc1")
"< 5.00"
>>> result("CCCCOc1ccc(C(=O)n2c(C)c(CC(=O)O)c3cc(C)ccc32)cc1")
5.30
>>> result("CCCCOc1ccc(C(=O)n2c(C)c(CC(=O)O)c3cc(O)ccc32)cc1")
"< 5.00"

Record `CCCCOc1ccc(C(=O)n2cc(CC(=O)O)c3cc(OC)ccc32)cc1` . Reported pKi: < 5.00

* * *

systemTested: Prostaglandin D2 receptor (Mus musculus, UniProt P70263)
Sequence (P70263 whole entry): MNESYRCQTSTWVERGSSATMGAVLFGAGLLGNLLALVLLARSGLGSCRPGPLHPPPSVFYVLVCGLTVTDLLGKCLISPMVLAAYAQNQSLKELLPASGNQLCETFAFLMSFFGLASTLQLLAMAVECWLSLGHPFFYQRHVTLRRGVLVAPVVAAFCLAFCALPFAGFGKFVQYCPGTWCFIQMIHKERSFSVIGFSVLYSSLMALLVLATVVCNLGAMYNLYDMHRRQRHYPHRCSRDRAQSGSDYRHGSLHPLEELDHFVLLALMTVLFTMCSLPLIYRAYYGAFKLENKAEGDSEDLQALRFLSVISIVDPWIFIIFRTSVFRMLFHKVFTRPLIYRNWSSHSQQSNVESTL
testSummary: Binding affinity for mouse Prostanoid DP receptor
Returns: string. Value is YES if measured Ki is below 900 nM, and NO if it is greater than or equal to it.

Example entries begin here.
>>> labelvalue("CCCCOc1cccc(C(=O)n2c(C)c(CC(=O)O)c3cc(OC)ccc32)c1")
"YES"
>>> labelvalue("CCCCOc1ccc(C(=O)n2c(C)c(CCCCC(=O)O)c3cc(OC)ccc32)cc1")
"YES"
>>> labelvalue("CCCCOc1ccc(C(=O)n2c(C)c(C(=O)O)c3cc(OC)ccc32)cc1")
"NO"
>>> labelvalue("CCCCOc1ccc(C(=O)n2c(C)c(CC(=O)O)c3cc(O)ccc32)cc1")
"NO"

Next item in the queue.
Please indicate whether the reported Ki of `CCCCOc1ccc(C(=O)n2cc(CC(=O)O)c3cc(OC)ccc32)cc1` is strictly below 900 nM.
NO

* * *

Catalogue of pKi values
systemTested: Prostaglandin E2 receptor EP2 subtype (Mus musculus, UniProt Q62053)
Sequence (Q62053 whole entry): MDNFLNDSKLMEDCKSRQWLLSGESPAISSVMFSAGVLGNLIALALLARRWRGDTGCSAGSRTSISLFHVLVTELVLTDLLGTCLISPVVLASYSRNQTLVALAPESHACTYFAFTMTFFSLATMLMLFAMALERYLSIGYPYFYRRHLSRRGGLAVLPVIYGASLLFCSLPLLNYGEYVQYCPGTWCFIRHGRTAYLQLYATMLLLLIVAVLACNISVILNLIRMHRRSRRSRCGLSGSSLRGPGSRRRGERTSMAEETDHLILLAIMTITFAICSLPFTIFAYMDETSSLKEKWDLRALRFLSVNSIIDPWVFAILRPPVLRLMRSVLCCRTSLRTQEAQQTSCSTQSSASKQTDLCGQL
On this scale, pKi is minus log10 of a concentration expressed in M (mol/L).

>>> resultnumber("CCCCOc1ccc(C(=O)n2c(C)c(CCC(=O)O)c3cc(OC)ccc32)cc1")
5.24
>>> resultnumber("CCCCOc1ccc(C(=O)n2c(C)c(CC(=O)O)c3cc(OC)ccc32)cc1")
5.33
>>> resultnumber("CCCCOc1ccc(C(=O)n2cc(CC(=O)O)c3cc(OC)ccc32)cc1")
5.05
>>> resultnumber("CCCCOc1ccc(C(=O)n2c(C)c(CC(=O)O)c3ccccc32)cc1")
5.68
>>> resultnumber("CCCCOc1ccc(C(=O)n2c(CC)c(CC(=O)O)c3cc(OC)ccc32)cc1")
5.54

pKi for Prostaglandin E2 receptor EP2 subtype (Mus musculus, UniProt Q62053) with input `CCCCOc1ccc(C(=O)n2c(C)c(CC(=O)O)c3cc(O)ccc32)cc1` equals 5.48

* * *

pKi: −log10 of the molar value.
Prostaglandin E2 receptor EP4 subtype (Mus musculus) data, read-out pKi

Record `CCCCOc1ccccc1C(=O)n1c(C)c(CC(=O)O)c2cc(OC)ccc21` . Reported pKi: < 5.00

Record `CCCCOc1ccc(C(=O)n2c(C)c(CCC(=O)O)c3cc(OC)ccc32)cc1` . Reported pKi: 5.52

Record `CCCCOc1ccc(C(=O)n2c(CC)c(CC(=O)O)c3cc(OC)ccc32)cc1` . Reported pKi: < 5.00

Record `CCCCOc1cccc(C(=O)n2c(C)c(CC(=O)O)c3cc(OC)ccc32)c1` . Reported pKi: < 5.00

* * *

Catalogue of pKi values
systemTested: Prostaglandin D2 receptor (Mus musculus, UniProt P70263)
Sequence (P70263 whole entry): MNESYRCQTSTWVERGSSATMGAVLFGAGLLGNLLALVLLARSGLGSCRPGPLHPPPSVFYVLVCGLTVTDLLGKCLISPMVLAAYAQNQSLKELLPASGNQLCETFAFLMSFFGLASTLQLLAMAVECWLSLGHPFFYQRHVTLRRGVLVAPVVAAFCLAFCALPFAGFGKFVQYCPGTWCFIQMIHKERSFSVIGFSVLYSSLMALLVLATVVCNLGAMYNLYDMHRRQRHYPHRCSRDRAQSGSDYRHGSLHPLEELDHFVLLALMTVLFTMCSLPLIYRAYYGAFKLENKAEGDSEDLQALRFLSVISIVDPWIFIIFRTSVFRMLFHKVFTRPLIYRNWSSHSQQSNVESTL
testSummary: Binding affinity for mouse Prostanoid DP receptor
On this scale, pKi is minus log10 of a concentration expressed in M (mol/L).

Illustrative cases are given below, each with its answer.
>>> resultnumber("CCCCOc1ccc(C(=O)n2c(C)c(CC(=O)O)c3ccccc32)cc1")
6.96
>>> resultnumber("CCCCOc1ccc(C(=O)n2c(CC)c(CC(=O)O)c3cc(OC)ccc32)cc1")
5.82
>>> resultnumber("CCCCOc1ccc(C(=O)n2c(C)c(CCCC(=O)O)c3cc(OC)ccc32)cc1")
6.72
>>> resultnumber("CCCCOc1ccc(C(=O)n2c(C)c(CC(=O)O)c3cc(OC)ccc32)cc1")
6.57
>>> resultnumber("CCCCOc1ccc(C(=O)n2c(C)c(CCC(=O)O)c3cc(OC)ccc32)cc1")
6.55

pKi for Prostaglandin D2 receptor (Mus musculus, UniProt P70263) with input `CCCCOc1ccc(C(=O)n2c(C)c(CC(=O)O)c3cc(C)ccc32)cc1` equals 6.82

* * *

systemTested: Prostaglandin E2 receptor EP4 subtype (Mus musculus, UniProt P32240)
Sequence (P32240 whole entry): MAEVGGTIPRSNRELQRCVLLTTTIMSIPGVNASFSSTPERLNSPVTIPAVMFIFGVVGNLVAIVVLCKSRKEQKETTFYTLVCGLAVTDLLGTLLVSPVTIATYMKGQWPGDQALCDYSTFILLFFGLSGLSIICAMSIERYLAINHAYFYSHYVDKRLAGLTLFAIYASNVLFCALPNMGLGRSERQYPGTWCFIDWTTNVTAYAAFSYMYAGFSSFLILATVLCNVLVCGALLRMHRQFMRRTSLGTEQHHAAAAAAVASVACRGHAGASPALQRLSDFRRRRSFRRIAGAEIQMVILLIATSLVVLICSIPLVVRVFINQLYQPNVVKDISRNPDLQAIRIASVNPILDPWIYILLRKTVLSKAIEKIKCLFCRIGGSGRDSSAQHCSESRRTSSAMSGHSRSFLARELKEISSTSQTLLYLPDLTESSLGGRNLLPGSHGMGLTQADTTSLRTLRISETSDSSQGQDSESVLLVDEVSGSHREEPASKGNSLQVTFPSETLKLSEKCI
Catalogue of Ki values
Expressed in µM, but write only the number.

Record `CCCCOc1ccc(C(=O)n2c(C)c(CC(=O)O)c3cc(C)ccc32)cc1` . Reported Ki: 2.2

Record `CCCCOc1ccc(C(=O)n2c(C)c(CCCCC(=O)O)c3cc(OC)ccc32)cc1` . Reported Ki: 4.2

Record `CCCCOc1ccc(C(=O)n2c(C)c(CCCC(=O)O)c3cc(OC)ccc32)cc1` . Reported Ki: 1.5
